Biological target: Cy5-labelled Mcl1 (amino acids 171-321) C286S protein (UniProtKB Q07820) (Homo sapiens (Human), UniProt Q07820, C286S)
Sequence (Q07820 171-321 C286S): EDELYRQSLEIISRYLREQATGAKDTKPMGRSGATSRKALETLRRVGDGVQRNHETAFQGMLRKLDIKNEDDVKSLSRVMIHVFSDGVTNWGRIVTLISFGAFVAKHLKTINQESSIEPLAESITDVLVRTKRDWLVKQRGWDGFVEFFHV
Assay: Inhibition of Mcl-1 by the fluorescence quenching assay (Example A, Method B)
Type: binding
Measured Quantity: Ki (nM)

CC(CC1Cc2ccccc2[C@]12CC[C@@](Nc1cccc(Cl)c1)(C(=O)O)CC2)C1CCC(=O)CC1 (single isomer, unassigned) [Example 572] :: 84.2
C[C@@H](COc1ccnc2c1[C@H](C)CCC2)CC1Cc2c(Cl)c(F)ccc2[C@]12CC[C@@](Nc1cccc(Cl)c1)(C(=O)O)CC2 (single isomer, unassigned) [Example 747] :: 0.788
CC(C)C1COc2cc3c(cc2OC1)[C@]1(CC[C@@](Nc2cccc(Cl)c2)(C(=O)O)CC1)[C@@H](C[C@@H](C)COc1ccnc2c1[C@H](C)CCC2)C3 (single isomer, unassigned) [Example 993] :: 0.0666
CC(O)c1ccc2c(c1)[C@]1(CC[C@@](Nc3cccc(Cl)c3)(C(=O)O)CC1)[C@H](C[C@@H](C)COc1ccnc3ccsc13)C2 (some centres unmarked) :: 2.12
C[C@@H](COc1ncnc2c1CCCC2)C[C@H]1Cc2ccccc2[C@]12CC[C@@](Nc1cccc(Cl)c1)(C(=O)O)CC2 :: 5.13

I = C[C@@H](COc1ccnc2c1[C@H](C)CCC2)C[C@H]1Cc2cc3c(cc2[C@]12CC[C@@](Nc1cccc(Cl)c1)(C(=O)O)CC2)OCC1(CC1)CO3
II = C[C@@H](COc1ccnc2c1[C@H](C)CC[C@H]2C)C[C@H]1Cc2cc(F)ccc2[C@]12CC[C@@](Nc1cccc(Cl)c1)(C(=O)O)CC2
Qu. In the pair I and II , the larger recorded Ki belongs to which? Identify your selection by its label.
Ans. II
